Source of measurements: ChEMBL document CHEMBL3632461

- Tested target: Myeloperoxidase (Homo sapiens)
- Procedure text: Inhibition of peroxidase activity of MPO isolated from human polynuclear leukocytes using Amplex Red as substrate assessed as formation of resorufin measured every 20 secs by spectrophotometric analysis; also: unit not given here
Value type: pKinact

Give recorded pKinact with Myeloperoxidase (Homo sapiens) for the following compound: COc1ccc(-c2cc(=O)[nH]c(=S)n2CC(N)=O)c(OC)c1
2.41

Give recorded pKinact with Myeloperoxidase (Homo sapiens) for the following compound: COc1ccc(-c2cc(=O)[nH]c(=S)n2CCN)c(OC)c1
2.61

* * *

- Procedure text: Plasma clearance in Wistar rat at 1 mg/kg, iv and 3 or 5 mg/kg, po
- Assay type: ADME, organism-based
Value type: clearance (mL/min/kg)
All answers are understood in mL/min/kg, so give the number only.

Worked cases, clearance given:
1. COc1ccc(OC)c(-c2cc(=O)[nH]c(=S)n2CC(N)=O)c1 : 37.6
2. COc1ccc(-c2cc(=O)[nH]c(=S)n2CC(N)=O)c(OC)c1 : 35.1
3. COc1ccc(-c2cc(=O)[nH]c(=S)n2CC(=O)NCCN)c(OC)c1 : 38.6
4. COc1ccc(-c2cc(=O)[nH]c(=S)n2CCN)c(OC)c1 : 70.3
5. COc1ccc(Cl)cc1-c1cc(=O)[nH]c(=S)n1CC(N)=O : 41.8

For the molecule shown here, COc1ccc(-c2cc(=O)[nH]c(=S)n2CCO)c(OC)c1 , give the reported clearance.
59.3
